Ref: ChEMBL document CHEMBL1938258

Target: Vascular endothelial growth factor receptor 2 (Homo sapiens)
Sequence (P35968 whole entry): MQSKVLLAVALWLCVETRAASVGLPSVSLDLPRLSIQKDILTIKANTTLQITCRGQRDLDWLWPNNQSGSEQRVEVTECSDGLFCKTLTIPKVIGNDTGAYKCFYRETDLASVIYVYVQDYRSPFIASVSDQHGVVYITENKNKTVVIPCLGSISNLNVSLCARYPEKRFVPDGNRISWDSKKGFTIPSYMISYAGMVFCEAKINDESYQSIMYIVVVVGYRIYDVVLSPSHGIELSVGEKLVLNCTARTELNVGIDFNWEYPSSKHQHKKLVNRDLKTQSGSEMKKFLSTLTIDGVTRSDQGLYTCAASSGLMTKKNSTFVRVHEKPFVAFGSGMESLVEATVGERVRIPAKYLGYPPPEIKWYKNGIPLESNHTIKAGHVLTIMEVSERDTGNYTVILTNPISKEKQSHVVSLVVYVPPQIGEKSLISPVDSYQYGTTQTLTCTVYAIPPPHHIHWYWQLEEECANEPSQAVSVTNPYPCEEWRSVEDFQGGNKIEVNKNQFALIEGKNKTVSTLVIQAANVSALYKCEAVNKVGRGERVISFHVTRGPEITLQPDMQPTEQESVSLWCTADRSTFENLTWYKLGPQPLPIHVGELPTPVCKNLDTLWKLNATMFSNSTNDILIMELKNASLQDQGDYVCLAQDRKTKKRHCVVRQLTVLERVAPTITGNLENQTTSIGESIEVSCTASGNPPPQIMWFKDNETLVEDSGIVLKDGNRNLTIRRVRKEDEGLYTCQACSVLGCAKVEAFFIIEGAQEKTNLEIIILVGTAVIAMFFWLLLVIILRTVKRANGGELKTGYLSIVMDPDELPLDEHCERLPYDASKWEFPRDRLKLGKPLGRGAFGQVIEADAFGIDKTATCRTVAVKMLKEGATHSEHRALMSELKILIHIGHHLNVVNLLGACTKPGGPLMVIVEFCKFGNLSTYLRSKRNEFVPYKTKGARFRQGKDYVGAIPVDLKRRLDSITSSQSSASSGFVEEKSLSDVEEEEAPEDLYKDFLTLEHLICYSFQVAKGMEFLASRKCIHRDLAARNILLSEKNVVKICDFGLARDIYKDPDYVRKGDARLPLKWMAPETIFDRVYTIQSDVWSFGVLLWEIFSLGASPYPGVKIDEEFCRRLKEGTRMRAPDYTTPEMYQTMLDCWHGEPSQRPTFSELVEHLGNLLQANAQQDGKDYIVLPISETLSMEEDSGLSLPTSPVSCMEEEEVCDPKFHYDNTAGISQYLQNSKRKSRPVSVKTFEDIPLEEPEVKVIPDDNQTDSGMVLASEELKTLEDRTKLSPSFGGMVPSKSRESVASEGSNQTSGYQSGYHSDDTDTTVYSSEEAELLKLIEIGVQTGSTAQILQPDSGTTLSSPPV
Test: Inhibition of VEGFR-2 after 1 hr by fluorescence polarization assay
Endpoint name: IC50 (nM)

(1) Cc1cccc2cc(/C=C/C(=O)c3cc(Cl)sc3Cl)c(Cl)nc12
(2) Cc1ccc2cc(/C=C/C(=O)c3sccc3Br)c(Cl)nc2c1
Request: Please state the entry with greater IC50 among 1 and 2 . Please respond with the label that marks your chosen entry.
Result: 1

(A) Cc1ccc(C(=O)/C=C/c2cc3cccc(C)c3nc2Cl)s1
(B) Cc1ccc2nc(Cl)c(/C=C/C(=O)c3cc(C)sc3C)cc2c1
Request: Among A and B , which shows a numerically higher IC50 result? Pick one; state its label.
Result: B
(B: 453 nM, A: 262 nM)

(P) Cc1ccc2cc(/C=C/C(=O)c3sccc3C)c(Cl)nc2c1
(Q) Cc1ccsc1C(=O)/C=C/c1cc2cccc(C)c2nc1Cl
Request: Hi! Which is lower in terms of IC50, the first one P or the second one Q ? Use the label to indicate which entry you chose.
Result: P

(P) Cc1ccc2nc(Cl)c(/C=C/C(=O)c3sccc3Br)cc2c1
(Q) Cc1ccc2nc(Cl)c(/C=C/C(=O)c3cc(Cl)sc3Cl)cc2c1
(R) Cc1ccc2cc(/C=C/C(=O)c3ccsc3)c(Cl)nc2c1
(S) Cc1cccc2cc(/C=C/C(=O)c3ccsc3)c(Cl)nc12
Request: // ranking: key=IC50, reverse=True Sort the labels as requested; that list is your answer.
Result: S, R, P, Q
(S: 389 nM, R: 208 nM, P: 129 nM, Q: 81.4 nM)

(a) Cc1csc(C(=O)/C=C/c2cc3ccc(C)cc3nc2Cl)c1
(b) Cc1ccc2cc(/C=C/C(=O)c3ccc(Cl)s3)c(Cl)nc2c1
Request: Parameter metric = IC50. Return the lower-valued option from a and b . Write the label of whichever entry you select.
Result: b
(b: 92.2 nM, a: 139 nM)

(1) Cc1ccc2cc(/C=C/C(=O)c3ccc(C)s3)c(Cl)nc2c1
(2) Cc1ccc2cc(/C=C/C(=O)c3sccc3Cl)c(Cl)nc2c1
Request: Lower value of IC50 belongs to which: 1 or 2 ? Return value: the label identifying the chosen record.
Result: 2
